All values here come from ChEMBL document CHEMBL2157998.

Molecular target: Protein farnesyltransferase (Homo sapiens, UniProt P49354+P49356)
Assay: Inhibition of recombinant human FTase using dansyl-GCVLS as substrate at 100 uM after 15 mins by fluorimetric analysis
Format: protein-complex assay
inhibition vs 30%: at or above is yes, below is no.

>  <compound-smiles>
C/C(=N\NC(=O)CCN1c2ccccc2Sc2ccccc21)C1=C(O)c2ccccc2C1=O

>  <system-under-test>
Protein farnesyltransferase (Homo sapiens, UniProt P49354+P49356)

>  <assigned-category>
yes

$$$$
>  <compound-smiles>
N#Cc1cnn(CC(=O)N2c3ccccc3Sc3ccccc32)c1N

>  <system-under-test>
Protein farnesyltransferase (Homo sapiens, UniProt P49354+P49356)

>  <assigned-category>
yes

$$$$
>  <compound-smiles>
Cc1c2c(nn1CC(=O)N1c3ccccc3Sc3ccccc31)CCCC2

>  <system-under-test>
Protein farnesyltransferase (Homo sapiens, UniProt P49354+P49356)

>  <assigned-category>
no

$$$$
>  <compound-smiles>
Cc1cc(-c2ccccc2)n(CC(=O)N2c3ccccc3Sc3ccccc32)n1

>  <system-under-test>
Protein farnesyltransferase (Homo sapiens, UniProt P49354+P49356)

>  <assigned-category>
no

$$$$
>  <compound-smiles>
CCOC(=O)c1cc(-c2ccccc2)n(CC(=O)N2c3ccccc3Sc3ccccc32)n1

>  <system-under-test>
Protein farnesyltransferase (Homo sapiens, UniProt P49354+P49356)

>  <assigned-category>
no

$$$$
>  <compound-smiles>
Cc1c2c(nn1CC(=O)N1c3ccccc3Sc3ccccc31)-c1ccccc1C2=O

>  <system-under-test>
Protein farnesyltransferase (Homo sapiens, UniProt P49354+P49356)

>  <assigned-category>
yes

$$$$
>  <compound-smiles>
Cc1c2c(nn1C(=O)CCN1c3ccccc3Sc3ccccc31)CCCC2

>  <system-under-test>
Protein farnesyltransferase (Homo sapiens, UniProt P49354+P49356)

>  <assigned-category>
no

$$$$
>  <compound-smiles>
Cc1cc(C)n(CC(=O)N2c3ccccc3Sc3ccccc32)n1

>  <system-under-test>
Protein farnesyltransferase (Homo sapiens, UniProt P49354+P49356)

>  <assigned-category>
no

$$$$
>  <compound-smiles>
CCOC(=O)c1cc(-c2ccccc2)nn1CC(=O)N1c2ccccc2Sc2ccccc21

>  <system-under-test>
Protein farnesyltransferase (Homo sapiens, UniProt P49354+P49356)

>  <assigned-category>
no

$$$$

====

Biological target: Protein farnesyltransferase (Homo sapiens, UniProt P49354+P49356)
Experiment: Inhibition of recombinant human FTase using dansyl-GCVLS as substrate at 100 uM after 15 mins by fluorimetric analysis
Format: protein-complex assay

>  <compound>
N#Cc1cnn(C(=O)CCN2c3ccccc3Sc3ccccc32)c1N

>  <inhibition, %>
4.7

$$$$
>  <compound>
CCOC(=O)C1=NN(C(=O)CCN2c3ccccc3Sc3ccccc32)C(O)(c2ccccc2)C1 (stereo not drawn)

>  <inhibition, %>
22.8

$$$$
>  <compound>
Cc1c2c(nn1C(=O)CN1c3ccccc3Sc3ccccc31)CCCC2

>  <inhibition, %>
0

$$$$
>  <compound>
Cc1c2c(nn1C(=O)CCN1c3ccccc3Sc3ccccc31)CCCC2=O

>  <inhibition, %>
19.5

$$$$
>  <compound>
Cc1c2c(nn1C(=O)CN1c3ccccc3Sc3ccccc31)CCCC2=O

>  <inhibition, %>
0

$$$$
>  <compound>
CCOC(=O)c1cnn(CC(=O)N2c3ccccc3Sc3ccccc32)c1N

>  <inhibition, %>
24.8

$$$$
>  <compound>
Cc1cc(-c2ccccc2)n(C(=O)CN2c3ccccc3Sc3ccccc32)n1

>  <inhibition, %>
0

$$$$
>  <compound>
Cc1c2c(nn1CC(=O)N1c3ccccc3Sc3ccccc31)CCCC2=O

>  <inhibition, %>
46.6

$$$$

====

Test system: UO-31
Assay: Growth inhibition of human UO31 cells at 10 uM after 48 hrs by single dose SRB assay
Type: functional
Details: UO-31, 48 h, read-out: GI
Below, each of the molecules is paired with its reported inhibition of growth at 10 µM value.
endpoint-label: inhibition of growth at 10 µM

>  <compound-smiles>
CCOC(=O)c1cnn(CC(=O)N2c3ccccc3Sc3ccccc32)c1N

>  <endpoint-label>
inhibition of growth at 10 µM

>  <recorded-result>
13.3%

$$$$
>  <compound-smiles>
Cc1c2c(nn1CC(=O)N1c3ccccc3Sc3ccccc31)CCCC2

>  <endpoint-label>
inhibition of growth at 10 µM

>  <recorded-result>
10%

$$$$
>  <compound-smiles>
Cc1c2c(nn1CC(=O)N1c3ccccc3Sc3ccccc31)-c1ccccc1C2=O

>  <endpoint-label>
inhibition of growth at 10 µM

>  <recorded-result>
29.5%

$$$$
>  <compound-smiles>
N#Cc1cnn(CC(=O)N2c3ccccc3Sc3ccccc32)c1N

>  <endpoint-label>
inhibition of growth at 10 µM

>  <recorded-result>
6.4%

$$$$
>  <compound-smiles>
Cc1cc(-c2ccccc2)n(C(=O)CN2c3ccccc3Sc3ccccc32)n1

>  <endpoint-label>
inhibition of growth at 10 µM

>  <recorded-result>
9%

$$$$

====

System: NCI-H226
Assay: Growth inhibition of human NCI-H226 cells at 10 uM after 48 hrs by single dose SRB assay
Assay type: functional
Settings: NCI-H226, 48 h, read-out: GI
endpoint-label: inhibition of growth at 10 µM (%)

>  <compound-smiles>
CCOC(=O)c1cnn(CC(=O)N2c3ccccc3Sc3ccccc32)c1N

>  <unit-info>
%

>  <recorded-result>
8.1

$$$$
>  <compound-smiles>
Cc1c2c(nn1CC(=O)N1c3ccccc3Sc3ccccc31)-c1ccccc1C2=O

>  <unit-info>
%

>  <recorded-result>
25.3

$$$$
>  <compound-smiles>
Cc1c2c(nn1C(=O)CCN1c3ccccc3Sc3ccccc31)CCCC2

>  <unit-info>
%

>  <recorded-result>
12.8

$$$$
>  <compound-smiles>
Cc1cc(-c2ccccc2)n(C(=O)CN2c3ccccc3Sc3ccccc32)n1

>  <unit-info>
%

>  <recorded-result>
7.2

$$$$
